CCNE1 HIBIT PQ Max (%) values, listed per item
Target: CCNE1 (Homo sapiens, UniProt P24864+P24941)
Construct: host or cells: HEK293
Assay: CCNE1 HIBIT PQ (protein quantification), degradation
Type: cell-based
Settings: Max = Maximum
Form entry: value (%) — number only.

[[record]]
molecule = "CC(C)Oc1c(-c2cn[nH]c2)ncn2nc(Nc3ccc(S(=O)(=O)N(C)CCCN4CCC(c5cccc6c5n(C)c(=O)n6C5CCC(=O)NC5=O)CC4)cc3F)nc12 (racemic)"
recorded_metric = "CCNE1 HIBIT PQ Max (%)"
unit_of_measure = "%"
measured_number = 82

[[record]]
molecule = "CC(C)Oc1c(-c2cn[nH]c2)ncn2nc(Nc3ccc(S(=O)(=O)c4cccc(C(C)N5CCC(c6ccc7c(N8CCC(=O)NC8=O)nn(C)c7c6)CC5)c4)cc3F)nc12 (single isomer, unassigned) [Compound 101]"
recorded_metric = "CCNE1 HIBIT PQ Max (%)"
unit_of_measure = "%"
measured_number = 77

[[record]]
molecule = "CC(C)Oc1c(-c2cn[nH]c2)ncn2nc(Nc3ccc(S(=O)(=O)c4ccc(CN5CCC(c6ccc7c(c6)n(C)c(=O)n7[C@H]6CCC(=O)NC6=O)CC5)o4)cc3F)nc12"
recorded_metric = "CCNE1 HIBIT PQ Max (%)"
unit_of_measure = "%"
measured_number = 27

[[record]]
molecule = "CC(C)Oc1c(-c2cn[nH]c2)ncn2nc(Nc3ccc(S(=O)(=O)N4CCCC(CN5CCN(c6ccc7c(N8CCC(=O)NC8=O)nn(C)c7c6)C6CC65)C4)cc3F)nc12 (stereo not shown)"
recorded_metric = "CCNE1 HIBIT PQ Max (%)"
unit_of_measure = "%"
measured_number = 25

[[record]]
molecule = "CC(C)Oc1c(-c2cn[nH]c2)ncn2nc(Nc3ccc(S(=O)(=O)c4cccc(C(C)N5CCN(c6ccc7c(N8CCC(=O)NC8=O)nn(C)c7c6)CC5)c4)cc3F)nc12 (single isomer, unassigned) [Compound 99]"
recorded_metric = "CCNE1 HIBIT PQ Max (%)"
unit_of_measure = "%"
measured_number = 52


Measured on CCNE1 (Homo sapiens, UniProt P24864+P24941), CC(C)Oc1c(-c2cn[nH]c2)ncn2nc(Nc3ccc(S(=O)(=O)c4cccc(CN5CCN(c6ccc7c(N8CCC(=O)NC8=O)nn(C)c7c6)CC5(C)C)c4)cc3F)nc12 has a documented CCNE1 HIBIT PQ Max (%) of 72

The molecule CC(C)Oc1c(-c2cn[nH]c2)ncn2nc(Nc3ccc(S(=O)(=O)c4cccc(C[C@H]5C[C@@H](c6ccc7c(c6)CN([C@@H]6CCC(=O)NC6=O)C7=O)C5)c4)cc3F)nc12 (stereo in doubt) , tested on CCNE1 (Homo sapiens, UniProt P24864+P24941), showed CCNE1 HIBIT PQ Max (%) of 84

Measured CCNE1 HIBIT PQ Max (%) for this entry CC(C)Oc1c(-c2cn[nH]c2)ncn2nc(Nc3ccc(S(=O)(=O)N4CCC[C@@H](CN5CC[C@@H](c6ccc7c(N8CCC(=O)NC8=O)nn(C)c7c6)CC5(C)C)C4)cc3F)nc12 (single isomer, unassigned) on CCNE1 (Homo sapiens, UniProt P24864+P24941): 24

The recorded CCNE1 HIBIT PQ Max (%) with CCNE1 (Homo sapiens, UniProt P24864+P24941) for CC(C)Oc1c(-c2cn[nH]c2)ncn2nc(N[C@H]3CCN(S(=O)(=O)c4cccc(CN5CCN(c6ccc7c(N8CCC(=O)NC8=O)nn(C)c7c6)CC5(C)C)c4)C[C@H]3C)nc12 was 93

The molecule CC(C)Oc1c(-c2cn[nH]c2)ncn2nc(Nc3ccc(S(=O)(=O)c4cccc(CN5CC(c6ccc7c(N8CCC(=O)NC8=O)nn(C)c7c6)C5)c4)cc3F)nc12 , tested on CCNE1 (Homo sapiens, UniProt P24864+P24941), showed CCNE1 HIBIT PQ Max (%) of 36

Bench note, CCNE1 (Homo sapiens, UniProt P24864+P24941): entry CC(C)Oc1c(-c2cn[nH]c2)ncn2nc(N[C@H]3CCN(S(=O)(=O)N(C)CCCN4CCC(c5cccc6c5n(C)c(=O)n6C5CCC(=O)NC5=O)CC4)C[C@H]3C)nc12 (stereo partly shown) , its CCNE1 HIBIT PQ Max (%) = 96

Given the molecule CC(C)Oc1c(-c2cn[nH]c2)ncn2nc(Nc3ccc(S(=O)(=O)N(C)CCCN4CCN(c5ccc6c(c5)n(C)c(=O)n6C5CCC(=O)NC5=O)CC4(C)C)cc3F)nc12 (racemic) and test system CCNE1 (Homo sapiens, UniProt P24864+P24941), the measured CCNE1 HIBIT PQ Max (%) is 73

The molecule CC(C)Oc1c(-c2cn[nH]c2)ncn2nc(Nc3ccc(S(=O)(=O)c4cccc(CN5CCN(c6ccc7c(N8CCC(=O)NC8=O)nn(C)c7c6)CC5)c4)cc3F)nc12 , tested on CCNE1 (Homo sapiens, UniProt P24864+P24941), showed CCNE1 HIBIT PQ Max (%) of 55

Hey, just so you know, these numbers are from patent US20260062426A1.
